Molecular target: Ah‐BarR (S. acidocaldarius promoter P sa‐at, mKate2 reporter) (Acidianus hospitalis, UniProt F4B5V3)
Sequence (F4B5V3 1-165): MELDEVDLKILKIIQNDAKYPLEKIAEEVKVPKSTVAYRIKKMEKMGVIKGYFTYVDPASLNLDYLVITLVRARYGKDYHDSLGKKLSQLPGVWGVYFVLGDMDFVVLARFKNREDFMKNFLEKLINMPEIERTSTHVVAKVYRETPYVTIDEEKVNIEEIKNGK
Assay: cell-based
MEASURED ENDPOINT: EC50 (µM)
Numbers only, in µM.

Note down EC50 recorded for NCCC(=O)O
90

----------
Target: Ah‐BarR M103A (P ah‐barR promoter, mKate2 reporter) (Acidianus hospitalis, UniProt F4B5V3, M103A)
Sequence (F4B5V3 entry or part of it M103A): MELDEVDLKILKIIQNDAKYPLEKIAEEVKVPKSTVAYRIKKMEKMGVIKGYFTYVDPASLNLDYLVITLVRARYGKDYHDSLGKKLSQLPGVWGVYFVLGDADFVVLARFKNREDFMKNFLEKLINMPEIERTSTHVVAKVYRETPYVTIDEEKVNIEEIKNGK
Test: cell-based
MEASURED ENDPOINT: EC50 (µM)
One number for each entry, in µM.

Note down EC50 recorded for NCCC(=O)O
1350

----------
Target: Ah‐BarR M103N (P ah‐barR promoter, mKate2 reporter) (Acidianus hospitalis, UniProt F4B5V3, M103N)
Sequence (F4B5V3 entry or part of it M103N): as the sequence (F4B5V3 entry or part of it M103A) above, with A103N counted along it
Assay: cell-based
MEASURED ENDPOINT: EC50 (µM)
Numbers only, in µM.

Note down EC50 recorded for NCCC(=O)O
460
